- Tested on: MS2 coat protein
- test_summary: apparent KD of MS2 coat protein; designed switch direction (-1 OFF switch, 1 ON switch): 1; higher = weaker reporter binding
- protocol_conditions: Eterna round: R95; input ligand: none
Measured apparent KD of MS2 coat protein determines class: zone 1 = under 40 nM, zone 2 = from 40 nM up to 200 nM, zone 3 = 200 nM and over

Worked set:
input_sequence	label_value
GGAGAGAGAGCGCAGGAUAUUCAAGGAGAGACAUGAGGAUCACCCAUGUAAGAGAGAGAGGAGAGGGAGAAGGGUGAGAGAGAGG [Altered State 2-12 - Jieux - Same State 2] (puzzle: Same State 2)	zone 1
UGUUAACAUGAGGAUCACCCAUGUCAAAUGAAUGAAGGAUAUGGAAAGUAAUAAGAUGAACUAGAAGGUCAAGAUG [Altered State 1-22 - Jieux - Same State 1] (puzzle: Same State 1)	zone 2
CUGUGUUGCGGGCAGGAUAUGUACUUGAGUACAUGAGGAUCACCCAUGUGCGGGUGUUUCACCCGACAGAAGGGCCAAUCGCGAC [JL-ss2-3.23 ViennaUCT mod] (puzzle: Same State 2)	zone 3

Q: Sort into band: GACAAUCUAUCUGAGGAUAUCAUGAAUAAAACAUGAGGAUCACCCAUGUGCAGGAUAACUGCAAAUGAGAAGGCAGAUAGAUUGG [Mat - Same State 2 - Mod - D9] (puzzle: Same State 2)
Ans: zone 1

Q: Let us now turn to AUAAAACAUGAGGAUCACCCAUGUCAACAAAGUCGAGGAUAUGGGCAAAUUAAAUAAGAACCAGAAGGCGAAUAAU [salish99_ss1_r3_024] (puzzle: Same State 1)
Ans: zone 3

Q: Would you kindly repeat that for AUCAUAGUAGCGCAGGAUAUCCAGGUCGAGACAUGAGGAUCACCCAUGUCAGCAGGAGGACCAGAGGAGAAGGGUGAGAAAAUAA [Bimaan] (puzzle: Same State 2) ?
Ans: zone 1

---

- Tested on: MS2 coat protein
- test_summary: apparent KD of MS2 coat protein; higher = weaker reporter binding
- protocol_conditions: Eterna round: R107; input ligand: theophylline 2 mM
observation_type: apparent KD of MS2 coat protein (nM)
# number only, unit nM dropped from output

Reference set (2 entries):
input_sequence	measurement_target	result_unit	apparent KD of MS2 coat protein
GGACUAACUGGAAGGAGCGACGCGCAGAAACUGCAAUUUCCUCCACACGAGGAUCACCCGUGUCAGGUAGGUCGCCAGUUAGUCG [ArgBX 29]	MS2 coat protein	nM	21.1
GGUAUGUAUUCGGAAACGAAUGCAUACCAUCGAGGACCGGUACGGCCGCCACUCGUGGCUGAUCAACAUGAGGAUCACCCAUGUA [Ex Tryptophan A 1]	MS2 coat protein	nM	83.4

Q: # query: apparent KD of MS2 coat protein | item GUUGGAUUUUCGGCCGCCACUGAGAGAGUCAUGUGAACAUGAGGAUCACCCAUGUAAUAUAUAUACAGGACCGGGAGGGUUGUAA [4.L] | system: MS2 coat protein
Ans: 18.6

Q: How about GGACCAUGGCGCGAUACCAGCUUGAGUGUACUGGCCAGGUACAUGAGGAUCACCCAUGUAAGCCCUUGGCAGCGCGCCAUGGUCC [#1 Exclusion - Theophylline B Attempt #24 (HarryS)] ?
Ans: 36.5

Q: Consider next the sequence AAAAUAAAACGUGCAAAAUCCUAAUGUGAAGGAGCGCACGAAAGUGCAGGUAGGUCGCACAUGAGGAUCACCCAUGUAGCACGAA [MAT - Exclusion Arginine A - Mod of Eli - D1] in the same way.
Ans: 367

Q: What do you get for UAGACGGCCGGAAGGAGCGGUACAUGAGGAUCACCCAUGUAUCCCUGGGCAUCCGUAGUGUGCCAGGUAGGUCGCCGGUUGCGGG [XArg-B21] ?
Ans: 18.2

Measured values drawn from the supplement of paper PMC9170038 for this set.
